Values were extracted from PubChem BioAssay (EPA / NIEHS).

Read-out: Interleukin-8 (IL8), CXCL8 (gene 3576)
assay details: BSK_LPS_IL8: BioMAP Diversity Plus: LPS Assay for Interleukin-8 (IL8) Biomarker Activity (AID 2283078)
test conditions: primary human HUVEC with PBMC; actives raise or lower the signal
Procedure: BSK_LPS is a cell-based, multiplexed-readout assay that uses umbilical vein endothelium and peripheral blood mononuclear cells, a human vascular primary cell co-culture, with measurements taken at 24 hours after chemical dosing in a 96-well plate.BSK_LPS_IL8 is an assay component measured in the BSK_LPS assay. It measures IL-8 antibody related to regulation of gene expression using ELISA technology.Data from the assay component BSK_LPS_IL8 was analyzed into 1 assay endpoint. […]
Active and inactive are the calls of the source. Rule for the calls: active = hit-call score of the fitted dose curve at least 0.9, where 1 is the maximum; inactive = score below 0.9.
Pick one: true (active), false (inactive)

Some solved cases for reference:
compound: CN(C[C@@H](CC[N+]12CCC(C3CCCCC3)(CC1)CC2)c1ccc(Cl)c(Cl)c1)C(=O)c1cc(C(F)(F)F)cc(C(F)(F)F)c1
class: true
//
compound: O=C(O)c1ccccc1C(=O)OCc1ccccc1
class: false
//
compound: Oc1ccc2ccccc2c1
class: false
//
compound: COc1cccc([C@H](O)C2CCN(CCc3ccc(F)cc3)CC2)c1OC
class: false
//
compound: O=C(O)Cc1cc(I)c(Oc2ccc(O)c(I)c2)c(I)c1
class: false

query: Please state the recorded outcome for this compound: "O=c1c(-c2ccc(O)cc2)coc2cc(O)cc(O)c12"
result: true

query: Please state the recorded outcome for this compound: OC12N=C(c3ccccc3)SC1Cc1cc(Cl)ccc12 (stereo unspecified)
result: false

query: Please state the recorded outcome for this compound: "NC(=O)c1nc(-c2cccc(-c3cc(F)ccc3OCC(F)(F)C(F)(F)F)c2)n[nH]1"
result: true

query: Please state the recorded outcome for this compound: "CC(C)(c1cc(Br)c(O)c(Br)c1)c1cc(Br)c(O)c(Br)c1"
result: true

query: Please state the recorded outcome for this compound: "c1ccc2n[nH]nc2c1"
result: false

query: Please state the recorded outcome for this compound: "CN1C(=O)CC[C@H]1c1cccnc1"
result: false

* * *

assay details: CEETOX_H295R_CORTISOL: CeeTox H295R High-throughput Steroidogenesis Assay for Cortisol (AID 2283438);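 note: cortisol secreted into medium quantified by LC-MS/MS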
test conditions: actives raise or lower the signal
The source made the active and inactive calls. The calls were made as follows: active = hit-call score of the fitted dose curve at least 0.9, where 1 is the maximum; inactive = score below 0.9.
Pick one: active, inactive

Some solved cases for reference:
smiles string: CCCCOC(=O)c1ccc(O)cc1
class: inactive
//
smiles string: NC(=O)c1nc(-c2cccc(-c3cc(F)ccc3OCC(F)(F)C(F)(F)F)c2)n[nH]1
class: inactive
//
smiles string: Clc1cc(Cl)c2c(c1)N=C1CCCCCN1C2
class: inactive
//
smiles string: Cc1oc2c(NC(=O)c3c(Cl)cccc3Cl)cccc2c1C(C)(C)O
class: inactive
//
smiles string: CCCCCCCCCCCC[N+](C)(C)C
class: inactive

query: Please state the recorded outcome for this compound: "C[C@]12CC[C@@H]3c4ccc(O)cc4CC[C@H]3[C@@H]1CC[C@H]2O"
result: active

query: Please state the recorded outcome for this compound: "CCCCCCCCOC(=O)c1cc(O)c(O)c(O)c1"
result: inactive

query: Please state the recorded outcome for this compound: "CCCCCCCC[Si](OCC)(OCC)OCC"
result: inactive

* * *

assay details: BSK_SAg_Proliferation: Cell Proliferation Assessment in the BioMAP Diversity Plus: SAg Assay (AID 2283095);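 note: relative cell number as total protein by SRB absorbance in sub-confluent culture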
test conditions: primary human HUVEC with PBMC
Active and inactive are the calls of the source. How the source made its calls: active means hit-call score of the fitted dose curve at least 0.9, where 1 is the maximum; inactive means score below 0.9.
Pick one: Yes for active, No for inactive

Some solved cases for reference:
compound: COc1cccc([C@H](O)C2CCN(CCc3ccc(F)cc3)CC2)c1OC
class: No
--
compound: CCCCCCCCCC(=O)O
class: No
--
compound: CCCCOC(=O)c1ccc(O)cc1
class: No
--
compound: CCOC(=O)O[C@H](C)OC(=O)c1ccc2c(c1)cc(C(=O)NC1CCN(C(C)C)CC1)n2Cc1cc(-c2ccc(Cl)s2)on1
class: Yes
--
compound: O=C(O)c1ccccc1C(=O)OCc1ccccc1
class: No
--
compound: CC(C)(C)c1csc(-c2cc3cc(OCc4ccccc4CC(=O)O)ccc3o2)n1
class: Yes

query: Please state the recorded outcome for this compound: "Clc1ccccc1C(c1ccccc1)(c1ccccc1)n1ccnc1"
result: Yes

query: Please state the recorded outcome for this compound: "COc1cc(C(=O)NC2CCN(C)CC2)ccc1Nc1ncc2c(n1)N(C1CCCC1)CC(F)(F)C(=O)N2C"
result: Yes

query: Please state the recorded outcome for this compound: "CCCCCCCCOc1ccc(C(=O)c2ccccc2)c(O)c1"
result: Yes

query: Please state the recorded outcome for this compound: "O=C(O)Cn1c(=O)n(Cc2ccc(Br)cc2F)c(=O)c2ccc(Cl)cc21"
result: No

query: Please state the recorded outcome for this compound: "CCCCOC(=O)CC(CC(=O)OCCCC)(OC(C)=O)C(=O)OCCCC"
result: No

query: Please state the recorded outcome for this compound: "Cc1oc2c(NC(=O)c3c(Cl)cccc3Cl)cccc2c1C(C)(C)O"
result: Yes

query: Please state the recorded outcome for this compound: "COc1ccc2cc(S(=O)(=O)N[C@H](CC(=O)N[C@H](Cc3ccc(CN4[C@H](C)CCC[C@@H]4C)cc3)C(=O)N(C)C(C)C)c3ccc4c(c3)OCO4)ccc2c1"
result: Yes

query: Please state the recorded outcome for this compound: "CC/C(=C(/CC)c1ccc(O)cc1)c1ccc(O)cc1"
result: Yes

query: Please state the recorded outcome for this compound: "CCN(Cc1cccnc1)C(=O)c1cccc(Cl)c1[C@]1(C)C(=O)N(Cc2ccc(OC)cc2OC)c2ccc(Cl)cc21"
result: Yes

query: Please state the recorded outcome for this compound: "c1ccc2n[nH]nc2c1"
result: No

query: Please state the recorded outcome for this compound: "CO[C@H]1/C=C/O[C@@]2(C)Oc3c(C)c(O)c4c(O)c(c(/C=N/N5CCN(C)CC5)c(O)c4c3C2=O)NC(=O)/C(C)=C\C=C\[C@H](C)[C@H](O)[C@@H](C)[C@@H](O)[C@@H](C)[C@H](OC(C)=O)[C@@H]1C"
result: Yes

query: Please state the recorded outcome for this compound: "CN(C[C@@H](CC[N+]12CCC(C3CCCCC3)(CC1)CC2)c1ccc(Cl)c(Cl)c1)C(=O)c1cc(C(F)(F)F)cc(C(F)(F)F)c1"
result: Yes

query: Please state the recorded outcome for this compound: CN1C(=O)N(c2ccccc2Br)Cc2cnc(Nc3ccc4c(c3)OCC(CO)O4)nc21 (stereo not given)
result: Yes

query: Please state the recorded outcome for this compound: "O=C(O)Cc1cc(I)c(Oc2ccc(O)c(I)c2)c(I)c1"
result: Yes

* * *

assay details: APR_HepG2_MitoMass_24hr: Apredica 24-hour HepG2 Assay for Mitochondrial Mass (AID 2282912)
test conditions: high-content imaging, actives raise or lower the signal
The source made the active and inactive calls. Rule for the calls: active = hit-call score of the fitted dose curve at least 0.9, where 1 is the maximum; inactive = score below 0.9.
Pick one: TRUE (active), FALSE (inactive)

Some solved cases for reference:
compound: CO[C@H]1/C=C/O[C@@]2(C)Oc3c(C)c(O)c4c(O)c(c(/C=N/N5CCN(C)CC5)c(O)c4c3C2=O)NC(=O)/C(C)=C\C=C\[C@H](C)[C@H](O)[C@@H](C)[C@@H](O)[C@@H](C)[C@H](OC(C)=O)[C@@H]1C
class: FALSE
--
compound: O=C(OCCCCCCOC(=O)c1ccccc1)c1ccccc1
class: FALSE

query: Please state the recorded outcome for this compound: "CCCCCCCCCCCCO"
result: FALSE

query: Please state the recorded outcome for this compound: "CC(C)(c1cc(Br)c(O)c(Br)c1)c1cc(Br)c(O)c(Br)c1"
result: FALSE

* * *

assay system: Peroxisome proliferator-activated receptor gamma (Homo sapiens) (UniProt P37231)
Sequence (P37231 whole entry, looked up): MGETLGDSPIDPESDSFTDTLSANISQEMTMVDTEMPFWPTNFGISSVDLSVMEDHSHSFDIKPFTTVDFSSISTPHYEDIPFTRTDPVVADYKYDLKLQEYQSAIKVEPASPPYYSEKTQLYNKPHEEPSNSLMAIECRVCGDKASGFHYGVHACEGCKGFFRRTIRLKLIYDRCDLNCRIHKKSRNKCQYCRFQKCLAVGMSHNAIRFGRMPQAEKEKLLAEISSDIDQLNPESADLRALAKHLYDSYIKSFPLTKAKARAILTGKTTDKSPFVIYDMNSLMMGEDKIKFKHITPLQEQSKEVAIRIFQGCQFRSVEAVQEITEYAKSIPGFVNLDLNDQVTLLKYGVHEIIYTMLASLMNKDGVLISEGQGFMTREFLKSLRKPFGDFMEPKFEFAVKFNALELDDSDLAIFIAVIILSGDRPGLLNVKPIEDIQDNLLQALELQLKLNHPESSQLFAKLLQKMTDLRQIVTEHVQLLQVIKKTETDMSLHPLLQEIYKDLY
assay details: OT_PPARg_PPARgSRC1_1440: Odyssey Thera (OT) 24-hour Protein-Complementation Assay for Peroxisome Proliferator-activated Receptor Gamma/ SRC-1 Co-activator (AID 2283388);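 note: nuclear to cytoplasmic ratio of reconstituted Venus YFP fluorescence in fixed imaged cells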
Calls of active or inactive are those of the source. How the source made its calls: active means hit-call score of the fitted dose curve at least 0.9, where 1 is the maximum; inconclusive means response in the unintended direction; inactive means score below 0.9.
endpoint name: outcome

Examples from the recorded data:
smiles string: Cc1oc2c(NC(=O)c3c(Cl)cccc3Cl)cccc2c1C(C)(C)O
outcome: inactive
--
smiles string: O=C1CCC(C2CCCCC2)CC1
outcome: inactive
--
smiles string: CCCCCCCCCCCO
outcome: inactive
--
smiles string: O=C(O)Cc1cc(I)c(Oc2ccc(O)c(I)c2)c(I)c1
outcome: inactive

query: Entry "Cc1ncc(CO)c(CO)c1O" has what outcome?
result: inactive

query: Entry "CC[C@H](NC(=O)c1cc(F)ccc1NS(=O)(=O)c1cccc2cccnc12)c1ccccc1" has what outcome?
result: inactive

query: Entry "Clc1ccccc1C(c1ccccc1)(c1ccccc1)n1ccnc1" has what outcome?
result: inactive

query: Entry "NCc1cccc(C2CCN(C(=O)c3ccc(C#Cc4ccccc4F)o3)CC2)c1" has what outcome?
result: inactive

query: Entry "CO[C@H]1/C=C/O[C@@]2(C)Oc3c(C)c(O)c4c(O)c(c(/C=N/N5CCN(C)CC5)c(O)c4c3C2=O)NC(=O)/C(C)=C\C=C\[C@H](C)[C@H](O)[C@@H](C)[C@@H](O)[C@@H](C)[C@H](OC(C)=O)[C@@H]1C" has what outcome?
result: inactive
